# credit: paper PMC4112162

Target chain: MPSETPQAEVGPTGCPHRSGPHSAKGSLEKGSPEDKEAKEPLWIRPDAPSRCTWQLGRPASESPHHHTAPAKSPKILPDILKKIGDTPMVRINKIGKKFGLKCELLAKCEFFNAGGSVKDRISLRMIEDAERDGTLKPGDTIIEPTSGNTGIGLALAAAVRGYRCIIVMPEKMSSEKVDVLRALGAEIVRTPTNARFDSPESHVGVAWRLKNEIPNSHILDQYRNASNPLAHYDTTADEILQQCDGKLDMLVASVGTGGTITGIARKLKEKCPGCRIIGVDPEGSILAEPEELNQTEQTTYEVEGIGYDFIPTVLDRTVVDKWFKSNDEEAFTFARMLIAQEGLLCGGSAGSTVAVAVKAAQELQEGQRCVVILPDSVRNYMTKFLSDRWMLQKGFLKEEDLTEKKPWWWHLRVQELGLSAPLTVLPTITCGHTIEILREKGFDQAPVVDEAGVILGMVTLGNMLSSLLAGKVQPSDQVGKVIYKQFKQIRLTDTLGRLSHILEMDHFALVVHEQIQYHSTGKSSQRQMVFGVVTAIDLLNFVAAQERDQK
readout: Kd (nM)
Form entry: value (nM) — number only.

[in] Form field: reported Kd of C[S+](CC[C@H](N)C(=O)O)C[C@H]1O[C@@H](n2cnc3c(N)ncnc32)[C@H](O)[C@@H]1O (stereo partly shown)
[out] 13
